# assay target: Chromobox protein homolog 1 (Homo sapiens)
# experiment description: qHTS Validation Assay for Inhibitors of HP1-beta Chromodomain Interactions with Methylated Histone Tails (AID 488953); also: nearly all actives have a fitted effect of over 50% in size; also: potency is read from the fitted curve at half-maximal effect
# setup conditions: HP1-beta chromodomain / methylated histone peptide binding assay; series mostly up to 114 µM
Results filed as inconclusive are left out. Calls of active or inactive are those of the source. Calls follow the shape of the dose curve; as a rule, active = well fitted inhibition curve with a large enough effect; inconclusive = small, poorly fitted or top-dose-only effect; inactive = no such curve, though single readings can be large or run the other way.
measured attribute: Potency

Answered examples (5):
1. O=C1NC(=O)C(c2ccccc2)(c2ccccc2)N1 ... inactive
2. CCN(CC)CCOC(=O)c1ccc(N)cc1 ... inactive
3. CCN(CC)CCNC(=O)c1ccc(N)cc1 ... inactive
4. COc1cccc(-c2cc(=O)c3ccccc3o2)c1N ... inactive
5. NC(N)=Nc1nc(CSCC/C(N)=N/S(N)(=O)=O)cs1 ... inactive

Exam item: For the compound shown here, CCN(CC)C(=O)c1ccc(O)c(OC)c1 , give the reported Potency.
Marked response: inactive

Exam item: Please report the recorded Potency for O=c1c(-c2ccc(O)cc2)coc2cc(O)ccc12 .
Marked response: inactive

Exam item: Quick one: Potency for O=C(O)CCc1nc(-c2ccccc2)c(-c2ccccc2)o1 ?
Marked response: inactive

Exam item: // lookup Potency for CC1=C(/C=C/C(C)=C/C=C/C(C)=C/C(=O)Nc2ccc(O)cc2)C(C)(C)CCC1
Marked response: 39.8 µM (active)

Exam item: Returns the measured Potency for the input compound. Input: CC(=O)N[C@@H](CS)C(=O)O
Marked response: inactive

Exam item: Look at this compound and give its reported Potency. CCn1cc(C(=O)O)c(=O)c2ccc(C)nc21
Marked response: inactive

Reference source for all entries: PubChem BioAssay (NCATS)
